# target desc: T1, human C5 protein (human, UniProt P01031 19-673; P01031 678-1676)
# T1 construct: Natural C5 is made from one precursor and circulates as two disulfide-linked chains; also called complement component C5; purified human C5
# assay summary: competitive fluorescence polarization vs probe R3076, Exp 1
Starred links: 1 amine or outer side, 2 acyl side, 3 side chain; linkers in the order of their positions; H or OH if unused. Positions of bridges follow the written chain, without caps; N, C: chain ends. Non-standard residues stand in square brackets, D forms with d. No end group written: not given here. mXylyl = bridging moiety between residues (mXylyl(i,j)); Trp(7-aza) = N[C@@H](Cc1c[nH]c2ncccc12)C(=O)O; pXylylene = c1cc(C[*:2])ccc1C[*:1]; Phg = N[C@H](C(=O)O)c1ccccc1; Tle = CC(C)(C)[C@H](N)C(=O)O; NMeS = CN[C@@H](CO)C(=O)O; Nva = CCC[C@H](N)C(=O)O
property measured: pKi
pKi here is simply -log10 of the concentration when that concentration is written in mol/L.

Documented pKi of Ac-[Nva]CYEN[Tle]Y[Trp(7-aza)]EYP[Phg]P-NH2 (SMILES CCC[C@H](NC(C)=O)C(=O)N[C@@H](CS)C(=O)N[C@@H](Cc1ccc(O)cc1)C(=O)N[C@@H](CCC(=O)O)C(=O)N[C@@H](CC(N)=O)C(=O)N[C@H](C(=O)N[C@@H](Cc1ccc(O)cc1)C(=O)N[C@@H](Cc1c[nH]c2ncccc12)C(=O)N[C@@H](CCC(=O)O)C(=O)N[C@@H](Cc1ccc(O)cc1)C(=O)N1CCC[C@H]1C(=O)N[C@H](C(=O)N1CCC[C@H]1C(N)=O)c1ccccc1)C(C)(C)C) [R3003] : 7.98

Documented pKi of MCVERFCDVYWE-NH2 (linker 2-7 via mXylyl) [R3043] : 6.06

Documented pKi of Ac-C[Phg]T[Trp(7-aza)]EY[NMeS]HC[Nva]P[Nva]-NH2 (linker 1-9 via mXylyl) [R3014] : 5.85

Documented pKi of Ac-[Nva]C[Phg]T[Trp(7-aza)]EY[NMeS]HC[Nva]-NH2 (linker 2-10 via pXylylene) [R3050] : 7.15

Documented pKi of Ac-[Nva]C[Phg]T[Trp(7-aza)]EY[NMeS]HC[Nva]P-NH2 (linker 2-10 via mXylyl) [R3011] : 7.14

The reported numbers originate from patent US11535650.
